Consider the following Ki values measured on UniProt:P20309.
Sequence (P20309 whole entry): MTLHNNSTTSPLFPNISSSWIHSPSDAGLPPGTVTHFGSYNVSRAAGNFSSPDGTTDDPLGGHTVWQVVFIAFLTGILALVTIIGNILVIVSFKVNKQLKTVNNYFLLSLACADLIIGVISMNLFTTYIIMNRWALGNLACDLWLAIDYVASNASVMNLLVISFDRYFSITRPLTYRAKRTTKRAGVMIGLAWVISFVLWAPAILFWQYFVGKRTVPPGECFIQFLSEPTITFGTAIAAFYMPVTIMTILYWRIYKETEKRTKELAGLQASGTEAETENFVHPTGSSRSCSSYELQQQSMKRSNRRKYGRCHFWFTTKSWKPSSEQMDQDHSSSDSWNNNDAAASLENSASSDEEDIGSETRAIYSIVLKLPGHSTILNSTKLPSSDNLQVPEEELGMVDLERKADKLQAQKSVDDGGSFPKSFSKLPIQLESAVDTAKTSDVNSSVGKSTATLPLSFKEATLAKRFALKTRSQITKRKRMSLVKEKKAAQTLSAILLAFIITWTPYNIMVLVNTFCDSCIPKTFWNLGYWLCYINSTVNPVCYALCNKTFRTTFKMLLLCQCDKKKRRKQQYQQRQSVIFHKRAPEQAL

MOLECULE: C[N+]1(C)CCC[C@@H]1c1ccc([C@](O)(c2ccccc2)C2CCCCC2)o1.[I-]
DISPLAY UNIT: nM
Ki: 1.51

MOLECULE: C[N+]1(C)CCCC1c1ccc(C(c2ccccc2)c2ccccc2)o1 (racemic)
DISPLAY UNIT: nM
Ki: 23.4

MOLECULE: C[N+]1(C)CCCC1c1ccc(C(O)(c2ccccc2)C2CCCCC2)o1 (mixture of isomers)
DISPLAY UNIT: nM
Ki: 7.24

MOLECULE: CN1CCC[C@@H]1c1ccc([C@](O)(c2ccccc2)C2CCCCC2)o1
DISPLAY UNIT: nM
Ki: 1.66

MOLECULE: CN1CCC[C@H]1c1ccc([C@@](O)(c2ccccc2)C2CCCCC2)o1
DISPLAY UNIT: nM
Ki: 1660

MOLECULE: CN1CCC[C@H]1c1ccc([C@](O)(c2ccccc2)C2CCCCC2)o1
DISPLAY UNIT: nM
Ki: 23.4

MOLECULE: CN1CCC[C@@H]1c1ccc([C@@](O)(c2ccccc2)C2CCCCC2)o1
DISPLAY UNIT: nM
Ki: 324

MOLECULE: CN1CCCC1c1ccc(C(O)(c2ccccc2)C2CCCCC2)o1 (mixture of isomers)
DISPLAY UNIT: nM
Ki: 7.76

MOLECULE: C[N+]1(C)CCC[C@H]1c1ccc([C@@](O)(c2ccccc2)C2CCCCC2)o1
DISPLAY UNIT: nM
Ki: 513

MOLECULE: C[N+]1(C)CCCC1c1ccc(C(O)(c2ccccc2)c2ccccc2)o1 (racemic)
DISPLAY UNIT: nM
Ki: 36.3

* * *

biological target: Muscarinic acetylcholine receptor M3 (Cavia porcellus); assay: Antagonist activity at muscarinic M3 receptor in guinea pig ileum assessed as effect on isotonic tension after 60 mins; format: functional, tissue-based

MOLECULE: CN1CCC[C@H]1c1ccc([C@@](O)(c2ccccc2)C2CCCCC2)o1
SYSTEM UNDER TEST: Muscarinic acetylcholine receptor M3 (Cavia porcellus)
pKb: 6.41
//
MOLECULE: C[N+]1(C)CCC[C@@H]1c1ccc([C@@](O)(c2ccccc2)C2CCCCC2)o1
SYSTEM UNDER TEST: Muscarinic acetylcholine receptor M3 (Cavia porcellus)
pKb: 6.95
//
MOLECULE: C[N+]1(C)CCCC1c1ccc(C(O)(c2ccccc2)c2ccccc2)o1 (racemic)
SYSTEM UNDER TEST: Muscarinic acetylcholine receptor M3 (Cavia porcellus)
pKb: 7.6
//
MOLECULE: CN1CCCC1c1ccc(C(O)(c2ccccc2)c2ccccc2)o1 (racemic)
SYSTEM UNDER TEST: Muscarinic acetylcholine receptor M3 (Cavia porcellus)
pKb: 6.65
//
MOLECULE: C[N+]1(C)CCCC1c1ccc(C(O)(c2ccccc2)C2CCCCC2)o1 (mixture of isomers)
SYSTEM UNDER TEST: Muscarinic acetylcholine receptor M3 (Cavia porcellus)
pKb: 8.35
//
MOLECULE: CN1CCCC1c1ccc(C(c2ccccc2)c2ccccc2)o1 (configuration not stated)
SYSTEM UNDER TEST: Muscarinic acetylcholine receptor M3 (Cavia porcellus)
pKb: 6.81
//
MOLECULE: C[N+]1(C)CCC[C@H]1c1ccc([C@](O)(c2ccccc2)C2CCCCC2)o1
SYSTEM UNDER TEST: Muscarinic acetylcholine receptor M3 (Cavia porcellus)
pKb: 7.95

* * *

biological target: Muscarinic acetylcholine receptor M2 (Homo sapiens, UniProt P08172); assay: Displacement of [3H]NMS from human cloned muscarinic M2 receptor expressed in CHO cells by scintillation counting; assay type: cell-based
pKi: −log10 of the molar value.
Threshold rule: pKi greater than or equal to 7 is Yes; below that, No.

COMPOUND: C[N+]1(C)CCC[C@@H]1c1ccc([C@](O)(c2ccccc2)C2CCCCC2)o1.[I-]
CLASS LABEL: Yes

COMPOUND: C[N+]1(C)CCCC1c1ccc(C(O)(c2ccccc2)c2ccccc2)o1 (racemic)
CLASS LABEL: Yes

COMPOUND: C[N+]1(C)CCCC1c1ccc(C(c2ccccc2)C2CCCCC2)o1 (mixture of isomers)
CLASS LABEL: Yes

COMPOUND: C[N+]1(C)CCCC1c1ccc(C(O)(c2ccccc2)C2CCCCC2)o1 (mixture of isomers)
CLASS LABEL: Yes

COMPOUND: C[N+]1(C)CCC[C@H]1c1ccc([C@@](O)(c2ccccc2)C2CCCCC2)o1
CLASS LABEL: No

* * *

Biological target: Muscarinic receptor 2 (Cavia porcellus) (UniProt Q8VH27)
Sequence (whole entry): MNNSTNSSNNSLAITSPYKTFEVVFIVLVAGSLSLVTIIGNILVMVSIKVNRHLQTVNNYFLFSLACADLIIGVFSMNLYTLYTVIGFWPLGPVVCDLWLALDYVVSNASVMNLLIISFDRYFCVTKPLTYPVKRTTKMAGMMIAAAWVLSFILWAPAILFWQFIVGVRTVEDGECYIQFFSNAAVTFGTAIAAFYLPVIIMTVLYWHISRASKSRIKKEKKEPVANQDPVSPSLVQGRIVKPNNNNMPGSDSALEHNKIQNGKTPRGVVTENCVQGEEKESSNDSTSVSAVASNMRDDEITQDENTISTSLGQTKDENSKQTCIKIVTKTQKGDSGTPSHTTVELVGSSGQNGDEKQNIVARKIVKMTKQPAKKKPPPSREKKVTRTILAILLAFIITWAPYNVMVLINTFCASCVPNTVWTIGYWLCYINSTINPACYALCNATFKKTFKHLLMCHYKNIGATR
Assay: Antagonist activity at muscarinic M2 receptor in guinea pig left atrium assessed as effect on electrically-stimulated inotropic activity after 60 mins
Assay type: functional, tissue-based
Details: Cardiac atrium
# pKb per entry
MEASURED PROPERTY: pKb

COMPOUND: CN1CCCC1c1ccc(C(O)(c2ccccc2)C2CCCCC2)o1 (mixture of isomers)
VALUE OBSERVED: 6.98
//
COMPOUND: CN1CCC[C@H]1c1ccc([C@@](O)(c2ccccc2)C2CCCCC2)o1
VALUE OBSERVED: 5.95
//
COMPOUND: C[N+]1(C)CCCC1c1ccc(C(O)(c2ccccc2)C2CCCCC2)o1 (mixture of isomers)
VALUE OBSERVED: 7.88
//
COMPOUND: C[N+]1(C)CCC[C@@H]1c1ccc([C@](O)(c2ccccc2)C2CCCCC2)o1.[I-]
VALUE OBSERVED: 8.49
//
COMPOUND: CN1CCC[C@H]1c1ccc([C@](O)(c2ccccc2)C2CCCCC2)o1
VALUE OBSERVED: 6.65

* * *

# Ki per entry
biological target: Muscarinic acetylcholine receptor M4 (Homo sapiens, UniProt P08173)
Sequence (P08173 whole entry): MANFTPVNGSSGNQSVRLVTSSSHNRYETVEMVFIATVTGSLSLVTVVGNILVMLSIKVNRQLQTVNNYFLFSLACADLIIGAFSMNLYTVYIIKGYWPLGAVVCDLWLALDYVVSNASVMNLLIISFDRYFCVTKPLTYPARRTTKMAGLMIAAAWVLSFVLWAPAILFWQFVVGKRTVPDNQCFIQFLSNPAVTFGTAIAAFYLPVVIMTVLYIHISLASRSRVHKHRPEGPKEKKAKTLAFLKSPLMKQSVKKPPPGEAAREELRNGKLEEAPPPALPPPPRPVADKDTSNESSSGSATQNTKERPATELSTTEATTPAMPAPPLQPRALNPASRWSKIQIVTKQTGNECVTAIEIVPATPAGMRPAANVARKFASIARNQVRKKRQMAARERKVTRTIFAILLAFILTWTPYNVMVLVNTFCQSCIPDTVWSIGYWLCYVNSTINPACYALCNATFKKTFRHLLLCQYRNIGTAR

COMPOUND: CN1CCCC1c1ccc(C(O)(c2ccccc2)c2ccccc2)o1 (racemic)
SYSTEM UNDER TEST: Muscarinic acetylcholine receptor M4 (Homo sapiens, UniProt P08173)
Ki: 105 nM

COMPOUND: CN1CCCC1c1ccc(C(c2ccccc2)c2ccccc2)o1 (stereo not drawn)
SYSTEM UNDER TEST: Muscarinic acetylcholine receptor M4 (Homo sapiens, UniProt P08173)
Ki: 158 nM

COMPOUND: C[N+]1(C)CCC[C@@H]1c1ccc([C@](O)(c2ccccc2)C2CCCCC2)o1.[I-]
SYSTEM UNDER TEST: Muscarinic acetylcholine receptor M4 (Homo sapiens, UniProt P08173)
Ki: 4.27 nM

* * *

Target: Muscarinic acetylcholine receptor M2 (Homo sapiens)
Sequence (P08172 whole entry): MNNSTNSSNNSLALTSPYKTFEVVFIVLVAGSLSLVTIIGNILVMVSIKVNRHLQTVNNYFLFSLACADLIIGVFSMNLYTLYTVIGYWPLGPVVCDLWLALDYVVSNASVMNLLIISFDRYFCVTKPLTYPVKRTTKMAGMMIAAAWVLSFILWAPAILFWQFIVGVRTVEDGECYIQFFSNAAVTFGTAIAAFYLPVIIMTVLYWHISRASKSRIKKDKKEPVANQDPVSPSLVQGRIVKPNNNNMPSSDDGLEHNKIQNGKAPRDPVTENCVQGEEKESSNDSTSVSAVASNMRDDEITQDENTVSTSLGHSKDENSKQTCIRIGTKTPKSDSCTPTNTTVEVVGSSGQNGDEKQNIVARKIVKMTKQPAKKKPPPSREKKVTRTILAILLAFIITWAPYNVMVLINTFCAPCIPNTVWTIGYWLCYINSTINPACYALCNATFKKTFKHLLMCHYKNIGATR
Test: Displacement of [3H]NMS from human cloned muscarinic M2 receptor expressed in CHO cells by scintillation counting
Format: cell-based
pKi: −log10 of the molar value.
MEASURED PROPERTY: pKi

MOLECULE: C[N+]1(C)CCC[C@H]1c1ccc([C@](O)(c2ccccc2)C2CCCCC2)o1
VALUE OBSERVED: 7.70
//
MOLECULE: C[N+]1(C)CCCC1c1ccc(C(c2ccccc2)c2ccccc2)o1 (racemic)
VALUE OBSERVED: 7.87
//
MOLECULE: CN1CCC[C@H]1c1ccc([C@@](O)(c2ccccc2)C2CCCCC2)o1
VALUE OBSERVED: 5.49
//
MOLECULE: CN1CCCC1c1ccc(C(O)(c2ccccc2)C2CCCCC2)o1 (mixture of isomers)
VALUE OBSERVED: 8.17
//
MOLECULE: CN1CCCC1c1ccc(C(O)(c2ccccc2)c2ccccc2)o1 (racemic)
VALUE OBSERVED: 7.53
//
MOLECULE: CN1CCC[C@H]1c1ccc([C@](O)(c2ccccc2)C2CCCCC2)o1
VALUE OBSERVED: 7.22
